molecular target: angiotensin I converting enzyme (ACE) (Homo sapiens); experiment: biochemical; conditions: primary amine or captopril concentration equal to 50 μM; chromatographic peaks collected from trypsic hydrolysate of αS2 casein, tested twice
Residues, ends and D or L forms follow the SMILES beside them.
Value kind: inhibition at 50 µM (%)
Numbers only; they are read as %.

Record summary for CC[C@H](C)[C@H](NC(=O)[C@H](CCC(=O)O)NC(=O)[C@H](CC(N)=O)NC(=O)[C@H](CC(C)C)NC(=O)[C@H](C)N)C(=O)N[C@@H](CC(N)=O)C(=O)N[C@@H](CCC(N)=O)C(=O)N[C@@H](Cc1ccccc1)C(=O)N[C@@H](Cc1ccc(O)cc1)C(=O)O [CNαS2-(f81-89)] (H-ALNEINQFY-OH; N-terminus and C-terminus assumed) : reported inhibition at 50 µM = 32.2

Record summary for CC[C@H](C)[C@H](NC(=O)[C@H](CCC(=O)O)NC(=O)[C@H](CC(N)=O)NC(=O)[C@H](CC(C)C)NC(=O)[C@H](C)N)C(=O)N[C@@H](CC(N)=O)C(=O)N[C@@H](CCC(N)=O)C(=O)N[C@@H](Cc1ccccc1)C(=O)N[C@@H](Cc1ccc(O)cc1)C(=O)N[C@@H](CCC(N)=O)C(=O)N[C@@H](CCCCN)C(=O)O [CNαS2-(f81-91)] (H-ALNEINQFYQK-OH; N-terminus and C-terminus assumed) : reported inhibition at 50 µM = 27.2

Record summary for CC[C@H](C)[C@H](NC(=O)[C@H](C)NC(=O)[C@H](CCSC)NC(=O)[C@@H](N)CC(N)=O)C(=O)N[C@@H](CC(N)=O)C(=O)N1CCC[C@H]1C(=O)N[C@@H](CO)C(=O)N[C@@H](CCCCN)C(=O)O [CNαS2-(f25-32)] (H-NMAINPSK-OH; N-terminus and C-terminus assumed) : reported inhibition at 50 µM = 42.5

---

target: angiotensin I converting enzyme (ACE) (Homo sapiens, UniProt P12821); assay: biochemical; conditions: primary amine or captopril concentration equal to 50 μM; chromatographic peaks collected from trypsic hydrolysate of αS2 casein, tested twice
Sequence (P12821 30-1306, species assumed): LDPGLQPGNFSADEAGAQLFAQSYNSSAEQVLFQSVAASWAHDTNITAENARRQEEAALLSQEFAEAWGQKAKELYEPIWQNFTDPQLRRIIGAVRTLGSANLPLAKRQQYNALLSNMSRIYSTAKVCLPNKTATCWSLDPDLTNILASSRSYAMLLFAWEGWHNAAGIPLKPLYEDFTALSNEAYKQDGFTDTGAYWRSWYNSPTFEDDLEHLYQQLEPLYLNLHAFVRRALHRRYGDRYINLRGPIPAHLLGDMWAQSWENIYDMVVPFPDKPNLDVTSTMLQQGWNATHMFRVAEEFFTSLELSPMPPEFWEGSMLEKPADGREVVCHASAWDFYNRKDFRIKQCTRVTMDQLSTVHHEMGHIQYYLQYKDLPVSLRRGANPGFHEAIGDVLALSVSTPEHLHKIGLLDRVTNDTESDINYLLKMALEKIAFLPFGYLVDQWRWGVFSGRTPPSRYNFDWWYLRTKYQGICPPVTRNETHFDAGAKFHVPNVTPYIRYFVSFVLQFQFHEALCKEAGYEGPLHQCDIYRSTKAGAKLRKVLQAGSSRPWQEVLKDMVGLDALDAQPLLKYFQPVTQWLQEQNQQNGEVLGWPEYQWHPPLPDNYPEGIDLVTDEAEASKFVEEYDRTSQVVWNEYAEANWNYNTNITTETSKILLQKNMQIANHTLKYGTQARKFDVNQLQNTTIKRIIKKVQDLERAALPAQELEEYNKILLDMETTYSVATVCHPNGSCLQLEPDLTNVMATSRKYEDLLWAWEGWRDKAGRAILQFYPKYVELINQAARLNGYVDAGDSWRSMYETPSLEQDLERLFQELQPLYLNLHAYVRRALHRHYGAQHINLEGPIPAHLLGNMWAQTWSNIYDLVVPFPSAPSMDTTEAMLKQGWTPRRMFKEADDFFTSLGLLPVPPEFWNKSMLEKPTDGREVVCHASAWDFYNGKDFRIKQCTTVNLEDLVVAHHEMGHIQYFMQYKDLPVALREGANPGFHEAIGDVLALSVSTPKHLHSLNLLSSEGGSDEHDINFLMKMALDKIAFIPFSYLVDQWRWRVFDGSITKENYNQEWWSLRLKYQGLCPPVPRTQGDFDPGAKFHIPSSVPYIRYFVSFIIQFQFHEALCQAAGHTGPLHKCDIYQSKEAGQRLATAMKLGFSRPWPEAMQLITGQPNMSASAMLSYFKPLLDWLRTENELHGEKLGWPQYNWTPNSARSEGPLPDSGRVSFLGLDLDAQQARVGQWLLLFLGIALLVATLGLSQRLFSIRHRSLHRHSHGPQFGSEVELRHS
Residues, ends and D or L forms follow the SMILES beside them.
Value kind: inhibition at 50 µM

Record summary for CC(C)C[C@H](NC(=O)[C@H](Cc1ccc(O)cc1)NC(=O)[C@H](CCC(N)=O)NC(=O)[C@@H]1CCCN1C(=O)[C@@H](N)Cc1ccccc1)C(=O)N[C@@H](CCC(N)=O)C(=O)N[C@@H](Cc1ccc(O)cc1)C(=O)O [CNαS2-(f92-98), Phe-Pro-Gln-Tyr-Leu-Gln-Tyr] (H-FPQYLQY-OH; N-terminus and C-terminus assumed) : reported inhibition at 50 µM = > 70%

Record summary for CC(C)C[C@H](NC(=O)[C@H](C)NC(=O)[C@@H](N)Cc1ccccc1)C(=O)N1CCC[C@H]1C(=O)N[C@@H](CCC(N)=O)C(=O)N[C@@H](Cc1ccc(O)cc1)C(=O)O [CNαS2-(f174-179), Phe-Ala-Leu-Pro-Gln-Tyr] (H-FALPQY-OH; N-terminus and C-terminus assumed) : reported inhibition at 50 µM = > 70%

Record summary for CC(C)C[C@H](NC(=O)[C@H](Cc1ccc(O)cc1)NC(=O)[C@H](CCC(N)=O)NC(=O)[C@@H]1CCCN1C(=O)[C@H](CC(C)C)NC(=O)[C@H](C)NC(=O)[C@@H](N)Cc1ccccc1)C(=O)N[C@@H](CCCCN)C(=O)O [CNαS2-(f174-181)] (H-FALPQYLK-OH; N-terminus and C-terminus assumed) : reported inhibition at 50 µM = > 70%

Record summary for CC(C)[C@H](NC(=O)[C@@H](N)[C@@H](C)O)C(=O)N[C@@H](Cc1ccc(O)cc1)C(=O)O [CNαS2-(f182-184), Thr-Val-Tyr] (H-Thr-Val-Tyr-OH; N-terminus and C-terminus assumed) : reported inhibition at 50 µM = > 70%
